Data origin: the supplement of paper PMC9170038

test system: MS2 coat protein; experiment: apparent KD of MS2 coat protein; designed switch direction (-1 OFF switch, 1 ON switch): 1; higher = weaker reporter binding; conditions: input ligand: microRNA oligo, concentration not stated
readout.kind: apparent KD of MS2 coat protein
Give me the value, and tack the unit on after it.

The examples below pair each entry with its known result.
>>> result("AGCUAUUAAUCAGGAUAUGGUCACAUGAGGAUCACCCAUGUGUAGAUGAUAAAAUGUGGUCAAGACUAGAAGGGAUUGCUAACA [SameState NG2 #62] (Eterna round: R96, puzzle: Same State NG 2)")
"49.3 nM"
>>> result("UCGAGCGUACUUGCAGACAUGAGGAUCACCCAUGUAAAUGGGAAGGAUAUGGUACCGUUUCGGUACCAGAAGGUCCUAAGUGUU [salish99_SSNG3_r04_303] (Eterna round: R96, puzzle: Same State NG 3)")
"146 nM"
>>> result("GAGAGGAUAUGGAGAGGAUCACCCUCUAGAAGGCUCGAAGGAGAGGAUAUGGAGAGGAUCACCCUCUAGAAGGCUCACUUCUCU [pwkr ssNG3 DX 2xF5 +2xFMN.6] (Eterna round: R96, puzzle: Same State NG 3)")
"105 nM"

Here is another sequence to look at.
Data request: Returns the measured apparent KD of MS2 coat protein for the input sequence. Input: GCAGGACGAUAAUAUAUCUUCACAUGAGGAUCACCCAUGUCUCAGGAUAUGGAUCCUAAUUGGAUCCAGAAGGGAGCGUCCUGC [Fiskers NG3ss - 33] (Eterna round: R96, puzzle: Same State NG 3)
Data returned: 43.3 nM

* * *

tested on: MS2 coat protein; assay: apparent KD of MS2 coat protein; designed switch direction (-1 OFF switch, 1 ON switch): -1; higher = weaker reporter binding; details: input ligand: FMN 200 uM
Use true (1) when the recorded apparent KD of MS2 coat protein is no lower than 30 nM; use false (0) when it is lower.

Answered cases to consult:
>>> assigned_category("GUCAGCUCGUCAGGAUAUACAUGAGGAUCACCCAUGUGAUCAAUAGCAGCUUCGGCUGCAUACAUGUAGAAGGGACGAGCUGAU [ENG2/6-B2] (Eterna round: R96, puzzle: Exclusion NG 2)")
"true (1)"
>>> assigned_category("AAGGUACGAGGAUAUACAUAGAUACAGACACAUGUGCAUGUACAUGAGGAUCACCCAUGUAGAAGGCGUAUAUA [AJ 18] (Eterna round: R96, puzzle: Exclusion 2)")
"true (1)"
>>> assigned_category("GUCUCAGCUGAGGAUAUAAACUCCCUUGAGGGUUUAGAAGGCAGUACAUGAGGAUCACCCAUGUGGUUCGUUUG [eternacac ex6r4 sub27] (Eterna round: R97, puzzle: Exclusion 6)")
"true (1)"

Data request: Assess whether reported apparent KD of MS2 coat protein for ACACUGCGAGGAUAUACAUGAGGAUCACCCAUGUAUCGGUAGUCAAGGUUAAUUUAAGGUAGAAGGCGCGUAUU [JR_Ex3_Sub007] (Eterna round: R97, puzzle: Exclusion 3) sits at 30 nM or higher.
Data returned: false (0)

Data request: Form field: apparent KD of MS2 coat protein at least 30 nM? Entry: CUAAAUCAUGUAGGAUAUGCGUGGCGAAGCUAUGCAGAAGGACAUGAGGAUCACCCAUGUCUUUCCGUCUGCGUACAGACGGGA [JL ENG1 1.20] (Eterna round: R96, puzzle: Exclusion NG 1)
Data returned: true (1)

Data request: Can UCCGGACAUGAGGAUCACCCAUGUCAGGAUAUACCCGAGGCAGCAAACACGCUAGCCAGUAGAAGGGACAUGGU [Geenma] (Eterna round: R97, puzzle: Exclusion 1) be said to have apparent KD of MS2 coat protein at or above 30 nM?
Data returned: false (0)

Data request: Could you verify whether the entry UAUUAGCAAGUAAGAUCCCACAUGAGGAUCACCCAUGUGCUCGUCAUAUCAGGUACGGAGCGGAAACUCACGGUACG [Sensor-V1 #87] (Eterna round: R97, puzzle: Sensor, turn-off variant 1) shows apparent KD of MS2 coat protein of no less than 30 nM?
Data returned: true (1)

Data request: Is it the case that UAUGAUGCAGGAUAUACAUGAGGAUCACCCAUGUCUCCAAGGGAUAAAGCCAGGCGCUGUAGAAGGGCGACGAC [Eternabot (L1) Solution 28] (Eterna round: R97, puzzle: Exclusion 3) has apparent KD of MS2 coat protein reaching or exceeding 30 nM?
Data returned: false (0)

Data request: Please indicate if the recorded apparent KD of MS2 coat protein for AUAUUGUGAGGAUAUGAACUUACUAUCGAAAGAUACUAAGUUCAGAAGGCACAUGAGGAUCACCCAUGUUUCUC [Long static hairpin v19] (Eterna round: R97, puzzle: Exclusion 4) meets or exceeds 30 nM.
Data returned: true (1)

Data request: API: above_or_equal(metric=apparent KD of MS2 coat protein, cutoff=30 nM) for item ACGAUGACCGAAAGAUGUCAAAAGACAUGAGGAUCACCCAUGUAGGAUAUGGCUACGAAAAGUAGUCAGAAGGACAUGUCAUCA [Omei Exc(NG) 3 A] (Eterna round: R96, puzzle: Exclusion NG 3)
Data returned: false (0)
